# Test system: K4 kissing-loop RNA reporter;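 note: bound reporter read as fluorescence of individual clusters on recovered sequencing chips by microscopy, with normalized cluster intensities fitted with a binding model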
# measurement.notes: apparent KD of K4 kissing-loop reporter; higher = weaker reporter binding
# particulars: Eterna round: R107; input ligand: none
Decision: apparent KD of K4 kissing-loop reporter compared against 500 nM; not below it gives satisfied, below it gives not satisfied.

GCUACCUAGGCAGGAUAUAGACAUUGAGUGAUGUUCGAUGAUUAUCCAUAUUCCCGUCACAUAUGACUAGAAGGGCCUAGGUAGC | not satisfied
UCCUAGGUUCGUCGGCGAAAGCCCUGCGAAGGAGCGUGCGAAAGUACAGGUAGGUCGCGCAGUGAUGUUGCACCUAGGUAAUAAA [#07 K4 Arginine A Exclusion] | not satisfied
CUGUUUGGUUGAGAGGUUGGGCGGAAUGAUACCAGUAUAUAAGAAUACCCUUGGCAGCAUAAGAAAGAUAUAGUGAUGUUGUAUA [SSTheophA.K] | not satisfied
AGGAUGUAGUGAUGUUAUAUAAGAAGUAAACGAGGACCGGUACGGCCGCCACUCGAAACGGCUACUAGCGCGUUGCGAGGUGUGC [ExTryptoA.Cf] | satisfied
GAAUAAUAAGUAGCAGUGAUGUUGCUACUACGAGGACCGGUACGGCCGCCACUCGAAUACGAGUGGACACUGCUACUACCACUCG [(H1)-(H2)-(Trp1)-(Trp2)-(T)'-(H)'-(T)''_Design8] | not satisfied

Challenge: // inclusive: apparent KD of K4 kissing-loop reporter at least 500 nM? input: CGCUGGGCGAGUGAUGUUCGCUCACGUGAUACCAGUGCAAUCCAACACCCUUGGCAGCACGCGGGCAGUGAUGUUGUCCUUAGUG [Exclusion Theophylline A GF12]
Response given: not satisfied

Challenge: // inclusive: apparent KD of K4 kissing-loop reporter at least 500 nM? input: AGGGAACGCACGGAUACCAGACUCAUAGUGAUGUUGUGGGUAUAAAUUAGCGCAUACACAGUCCCUUGGCAGCCGCUGAAUGGCC [theeternabot_exclusion_KL_Theo_B_1]
Response given: satisfied

Challenge: # check: apparent KD of K4 kissing-loop reporter of AGUGGACGUUACCGGAGUGAUGUUUCGGAUACCAGACACGAAAGUGUCCCUUGGCAGCCGUAGUGAUGUUACGGAGUUCACUAAA [KL-XTheo-A12 #KL 2] is greater than or equal to 500 nM
Response given: not satisfied

Challenge: Reported apparent KD of K4 kissing-loop reporter at or above 500 nM? UUAGUUAGAUUAUUAUUAGCCUACAAUGCUAAGGAUAUCCGAAUUCGGAGAAGGUAGUGAUGUUACUUAAGUAGGCACUAACAUU [AK7 Exc FMN A]
Response given: satisfied

Challenge: Determine whether this sequence has apparent KD of K4 kissing-loop reporter no lower than 500 nM: UAGGGCAUCGCAGGAUAUCCUGCUUAACGUUGGAUUCCAGUGAUGUUGGAAAGUCGGCCUAGGGUAGGAGAAGGGCGAACUUGAA [Maxean]
Response given: not satisfied

Challenge: Given AAUUCAGUGAUGUUGGAAGGCAGGCGGGAUACCAGCGGAGAAUAACGCCCUUGGCAGCCCAUAUAUCCCAAAUAGAUAAUAGUUC [Same State - Theophylline A (Freestyle 3)] , state whether its apparent KD of K4 kissing-loop reporter is at least 500 nM.
Response given: not satisfied

Challenge: Please indicate if the recorded apparent KD of K4 kissing-loop reporter for UGUACCGAGUCAGGAUAUGGCGUCGAAAGACGAAUGCUAGUGAUGUUAGGGAUCUGCGAAAGCAGUCCAGAAGGGACUUGGUACU [FmnBS 26 G36] meets or exceeds 500 nM.
Response given: satisfied
